experimentalDetails: DRUGMATRIX: Sodium/nucleoside co-transporter radioligand binding (ligand: nitrobenzylthioinosine)
Type: cell membranes, Cavia porcellus, Dunkin-Hartley, Cerebral cortex, Membrane
recordedConditions: Not Active = under 50% inhibition at 10 µM
endpoint: IC50

Here are 8 compounds together with their reported answers.
compound | IC50
C=C1[C@@H]2CCC3[C@@](CC[C@@H]4[C@H](C(=O)O)C[C@@H](O[C@@H]5O[C@H](CO)[C@@H](OS(=O)(=O)[O-])[C@H](OS(=O)(=O)[O-])[C@H]5OC(=O)CC(C)C)C[C@@]34C)(C2)[C@@H]1O.[K+].[K+] (some centres undefined) [ATRACTYLOSIDE] | Not Active
CC1(C)S[C@@H]2[C@H](NC(=O)[C@H](NC(=O)N3CCNC3=O)c3ccccc3)C(=O)N2[C@H]1C(=O)O | Not Active
CN1C(C(=O)Nc2ccccn2)=C(O)c2ccccc2S1(=O)=O | Not Active
Oc1cccc2cccnc12 | Not Active
Nc1nc2c(ncn2COC(CO)CO)c(=O)[nH]1 | Not Active
O=P1(NCCCl)OCCCN1CCCl (centres undefined) [IFOSFAMIDE] | Not Active
CC(C)(C)NCC(O)c1ccc(O)c(CO)c1 (centres undefined) | Not Active
Nc1ccc(S(N)(=O)=O)cc1 [SULFANILAMIDE] | Not Active

Turning to the following compound.
Prompt: Recorded IC50 of `Cc1[nH]cnc1CN1CCc2c(c3ccccc3n2C)C1=O` , please.
Completion: Not Active

###

assayTarget: Mu-type opioid receptor (Homo sapiens)
Sequence (P35372 whole entry): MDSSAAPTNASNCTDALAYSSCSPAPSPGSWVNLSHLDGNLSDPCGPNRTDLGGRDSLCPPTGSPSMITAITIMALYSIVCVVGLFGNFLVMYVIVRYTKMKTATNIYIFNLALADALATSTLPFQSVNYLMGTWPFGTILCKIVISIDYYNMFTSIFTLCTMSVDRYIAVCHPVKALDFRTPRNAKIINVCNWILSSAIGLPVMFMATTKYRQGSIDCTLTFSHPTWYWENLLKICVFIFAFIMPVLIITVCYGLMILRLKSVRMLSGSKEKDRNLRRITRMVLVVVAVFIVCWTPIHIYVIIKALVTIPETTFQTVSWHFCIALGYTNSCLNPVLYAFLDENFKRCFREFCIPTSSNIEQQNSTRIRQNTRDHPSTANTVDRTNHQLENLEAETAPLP
endpoint: Ki (nM)
Field: numeric (nM). Do not append units.

Prompt: Quick one: Ki for `Oc1c(Cl)cc(Cl)cc1Sc1cc(Cl)cc(Cl)c1O` ?
Completion: 2240

###

assayTarget: Cytochrome P450 2D6 (Homo sapiens, UniProt P10635); also: in other assays of this panel Not Active means under 50% inhibition at 10 µM
Sequence (P10635 whole entry): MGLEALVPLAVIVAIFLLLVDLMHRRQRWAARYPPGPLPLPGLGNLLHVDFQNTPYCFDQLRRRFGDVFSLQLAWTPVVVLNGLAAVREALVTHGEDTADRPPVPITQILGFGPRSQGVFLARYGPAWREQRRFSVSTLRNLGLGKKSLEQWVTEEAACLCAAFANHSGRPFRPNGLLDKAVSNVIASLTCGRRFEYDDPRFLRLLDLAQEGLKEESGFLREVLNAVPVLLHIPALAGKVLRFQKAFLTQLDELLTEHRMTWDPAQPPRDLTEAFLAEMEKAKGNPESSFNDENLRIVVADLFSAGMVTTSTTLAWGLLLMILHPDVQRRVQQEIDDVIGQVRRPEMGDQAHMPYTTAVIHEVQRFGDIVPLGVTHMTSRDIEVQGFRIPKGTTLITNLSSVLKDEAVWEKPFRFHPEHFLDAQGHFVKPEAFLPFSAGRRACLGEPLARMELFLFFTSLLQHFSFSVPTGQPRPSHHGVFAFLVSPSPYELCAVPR
recordedConditions: bti-tn-5b1-4
endpoint: IC50

Solved entries:
compound | IC50
CCC1(c2ccccc2)C(=O)NCNC1=O | Not Active
CCC[C@@H]1C[C@@H](C(=O)N[C@@H]([C@H]2O[C@H](SC)[C@H](O)[C@@H](O)[C@H]2O)[C@@H](C)O)N(C)C1 | Not Active
CCCSc1ccc2nc(NC(=O)OC)[nH]c2c1 | Not Active
CN1CCN2c3ccccc3Cc3ccccc3C2C1 (stereo not given) | Not Active
Nc1nc2c(ncn2COC(CO)CO)c(=O)[nH]1 | Not Active
C=C1CC[C@H](O)C/C1=C/C=C1\CCC[C@]2(C)[C@@H]([C@H](C)/C=C/[C@H](C)C(C)C)CC[C@@H]12 | Not Active
Cc1ccc(C(=O)C(C)CN2CCCCC2)cc1 (stereo not given) | Not Active
CC1COc2c(N3CCN(C)CC3)c(F)cc3c(=O)c(C(=O)O)cn1c23 (stereo not given) | Not Active

Prompt: Tell me reported IC50 for `COc1ccc2cc(CC(=O)O)ccc2c1` , tested with Cytochrome P450 2D6 (Homo sapiens, UniProt P10635).
Completion: Not Active

Prompt: Continue with `Oc1c(I)cc(I)c2cccnc12`
Completion: Not Active

Prompt: Then this compound: `CC(/C=C1\SC(=S)N(CC(=O)O)C1=O)=C\c1ccccc1`
Completion: Not Active

Prompt: Can you handle `Clc1ccccc1C(c1ccccc1)(c1ccccc1)n1ccnc1` next?
Completion: Not Active

Prompt: What would you report for `CCOC(=O)[C@H](CCc1ccccc1)N[C@@H](C)C(=O)N1[C@H](C(=O)O)C[C@@H]2CCC[C@@H]21` ?
Completion: Not Active

###

assayTarget: D(4) dopamine receptor (Homo sapiens, UniProt P21917)
Sequence (P21917 whole entry): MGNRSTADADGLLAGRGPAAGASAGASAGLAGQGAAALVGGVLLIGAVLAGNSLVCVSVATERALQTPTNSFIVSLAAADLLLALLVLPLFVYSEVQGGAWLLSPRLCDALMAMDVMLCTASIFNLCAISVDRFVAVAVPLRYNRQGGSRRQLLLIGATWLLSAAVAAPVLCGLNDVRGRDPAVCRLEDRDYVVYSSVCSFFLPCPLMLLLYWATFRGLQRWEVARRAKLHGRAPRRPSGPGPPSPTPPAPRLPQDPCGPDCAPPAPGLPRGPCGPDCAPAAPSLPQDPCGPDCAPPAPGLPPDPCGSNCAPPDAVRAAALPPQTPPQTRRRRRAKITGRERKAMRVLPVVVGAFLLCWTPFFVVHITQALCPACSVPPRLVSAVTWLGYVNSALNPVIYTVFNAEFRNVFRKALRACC
experimentalDetails: DRUGMATRIX: Dopamine D4.2 radioligand binding (ligand: [3H] Spiperone)
Format: cell membranes, CHO-K1, Membrane
recordedConditions: Not Active = under 50% inhibition at 10 µM; read-out: IC50
endpoint: pIC50
Conceptually, pIC50 converts a concentration in mol/L into minus its log10.

Prompt: Endpoint output: pIC50 of Clc1ccccc1C(c1ccccc1)(c1ccccc1)n1ccnc1 [CLOTRIMAZOLE] . Value?
Completion: 4.70

Prompt: What do you get for CSc1ccc2c(c1)N(CCC1CCCCN1C)c1ccccc1S2 (configuration not stated) [THIORIDAZINE] ?
Completion: 5.83

###

experimentalDetails: DRUGMATRIX: Atrial Natriuretic Factor (ANF) radioligand binding (ligand: [125I] ANF (rat))
Type: cell membranes, Cavia porcellus, Dunkin-Hartley, Adrenal gland, Membrane
recordedConditions: Not Active = under 50% inhibition at 10 µM
endpoint: Ki

Here are 4 molecules together with their reported answers.
structureString | Ki
O=C1CCc2cc(OCCCCc3nnnn3C3CCCCC3)ccc2N1 | Not Active
CCC[C@@H]1C[C@@H](C(=O)N[C@@H]([C@H]2O[C@H](SC)[C@H](O)[C@@H](O)[C@H]2O)[C@@H](C)O)N(C)C1 | Not Active
COc1ccc2cc(CC(=O)O)ccc2c1 | Not Active
CC(C)(S)[C@@H](N)C(=O)O | Not Active

Okay, next one:
Prompt: Using the record for `Oc1cccc2cccnc12` , report its Ki.
Completion: Not Active

###

assayTarget: 5-hydroxytryptamine receptor 1A (Rattus norvegicus, UniProt P19327); also: in other assays of this panel Not Active means under 50% inhibition at 10 µM
Sequence (P19327 whole entry): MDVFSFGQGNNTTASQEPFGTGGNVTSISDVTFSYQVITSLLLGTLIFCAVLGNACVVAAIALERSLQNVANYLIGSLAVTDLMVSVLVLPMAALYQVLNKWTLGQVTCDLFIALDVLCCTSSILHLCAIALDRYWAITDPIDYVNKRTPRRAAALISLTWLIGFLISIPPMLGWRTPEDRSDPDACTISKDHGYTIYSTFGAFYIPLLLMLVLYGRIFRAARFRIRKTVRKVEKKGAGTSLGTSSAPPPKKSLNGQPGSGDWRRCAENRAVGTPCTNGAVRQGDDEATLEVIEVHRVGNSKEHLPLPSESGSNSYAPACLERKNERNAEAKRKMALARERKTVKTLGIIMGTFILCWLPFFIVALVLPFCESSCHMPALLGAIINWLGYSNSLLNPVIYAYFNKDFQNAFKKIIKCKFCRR
Type: cell membranes, CHO-K1, Membrane
recordedConditions: cho-k1

compound | assayTarget | IC50
CO[C@@H]1[C@@H](O[C@@H]2O[C@H](C)[C@@H](O[C@H]3C[C@@](C)(O)[C@@H](OC(=O)CC(C)C)[C@H](C)O3)[C@H](N(C)C)[C@H]2O)[C@@H](CC=O)C[C@@H](C)[C@@H](O)/C=C/C=C/C[C@@H](C)OC(=O)C[C@H]1O [KITASAMYCIN] | 5-hydroxytryptamine receptor 1A (Rattus norvegicus, UniProt P19327) | Not Active
COc1ccc([C@@H]2Sc3ccccc3N(CCN(C)C)C(=O)[C@@H]2OC(C)=O)cc1 [DILTIAZEM] | 5-hydroxytryptamine receptor 1A (Rattus norvegicus, UniProt P19327) | Not Active
O=C1OCCN1/N=C/c1ccc([N+](=O)[O-])o1 [FURAZOLIDONE] | 5-hydroxytryptamine receptor 1A (Rattus norvegicus, UniProt P19327) | Not Active

###

assayTarget: 5-hydroxytryptamine receptor 1A (Rattus norvegicus, UniProt P19327); also: in other assays of this panel Not Active means under 50% inhibition at 10 µM
Format: cell membranes, CHO-K1, Membrane
recordedConditions: read-out: IC50
One threshold, 800 nM, splits the recorded IC50 values: lower ones are Met, equal or higher ones are Not met.

Prompt: Just wondering, is IC50 of `Clc1ccccc1C(c1ccccc1)(c1ccccc1)n1ccnc1` below 800 nM?
Completion: Not met

Prompt: Same question for `Oc1c(Cl)cc(Cl)cc1Sc1cc(Cl)cc(Cl)c1O` please.
Completion: Not met

Prompt: Now consider CSc1ccc2c(c1)N(CCC1CCCCN1C)c1ccccc1S2 (stereo not given) .
Completion: Met

Prompt: // repeat for `CN1C[C@H](C(=O)N[C@]2(C)O[C@@]3(O)[C@@H]4CCCN4C(=O)[C@H](Cc4ccccc4)N3C2=O)C=C2c3cccc4[nH]cc(c34)C[C@H]21` and report
Completion: Met

Prompt: And for `COc1ccc(CCN2CCC(Nc3nc4ccccc4n3Cc3ccc(F)cc3)CC2)cc1` ?
Completion: Met

Prompt: Now this one: CC(CCc1ccccc1)NCC(O)c1ccc(O)c(C(N)=O)c1 (stereo not given)
Completion: Met

Prompt: Now this one: `CNCCC=C1c2ccccc2CCc2ccccc21`
Completion: Not met

Prompt: Same thing, different compound: CN1CCN2c3ccccc3Cc3ccccc3C2C1 (stereo not given)
Completion: Not met

Prompt: Same question, `Cc1ccccc1N1CCN(CCc2nnc3n2CCCC3)CC1` this time
Completion: Not met

Prompt: What do you have for `CC(C)NC[C@H](O)COc1cccc2[nH]ccc12` ?
Completion: Met

###

experimentalDetails: DRUGMATRIX: Potassium Channel [KATP] radioligand binding (ligand: [3H] Glyburide)
Assay type: cell membranes, Membrane
recordedConditions: hit-t15; Not Active = under 50% inhibition at 10 µM
endpoint: IC50

// known answers, use as guide
compound | endpoint | result
Cc1ccccc1N1CCN(CCc2nnc3n2CCCC3)CC1 | IC50 | Not Active
Brc1ccccc1 | IC50 | Not Active
COc1ccc(C(CN(C)C)C2(O)CCCCC2)cc1 (configuration not stated) | IC50 | Not Active
OCc1ccccc1 | IC50 | Not Active
CC(C)(C)NCC(O)c1cc(O)cc(O)c1 (configuration not stated) | IC50 | Not Active

# next compound below
Prompt: Which value of IC50 has been reported for C=C1C(=O)O[C@@H]2C3O[C@]3(C)CC/C=C(\C)CC[C@@H]12 (some centres not stated) in the records?
Completion: Not Active

###

experimentalDetails: DRUGMATRIX: Glutamate, NMDA, Phencyclidine radioligand binding (ligand: [3H] TCP)
Format: cell membranes, Rattus norvegicus, Wistar, Cerebral cortex, Membrane
recordedConditions: Not Active = under 50% inhibition at 10 µM
Where a SMILES comes first, the peptide text is derived from it. Bridges are numbered along the chain shown (N, C = ends). [ ]: non-standard residue; d: D form. The star is where a group is joined. Ileψ(thiazoline)Cys = CC[C@H](C)[C@H](N)C1=N[C@H](C(=O)*)CS1; dOrn = NCCC[C@@H](N)C(=O)O

compound | IC50
CC[C@H](C)[C@H](N)C1=N[C@H](C(=O)N[C@@H](CC(C)C)C(=O)N[C@H](CCC(=O)O)C(=O)N[C@H](C(=O)N[C@H]2CCCCNC(=O)[C@H](CC(N)=O)NC(=O)[C@@H](CC(=O)O)NC(=O)[C@H](Cc3cnc[nH]3)NC(=O)[C@@H](Cc3ccccc3)NC(=O)[C@H]([C@@H](C)CC)NC(=O)[C@@H](CCCN)NC2=O)[C@@H](C)CC)CS1 [BACITRACIN] ({Ileψ(thiazoline)Cys}-L[dE]IK[dOrn]I[dF]H[dD]N; lactam 4-C) | Not Active
OCc1ccccc1 [BENZYL ALCOHOL] | Not Active
